Test: in vivo
Conditions: female, CB-17 SCID, mouse, blood, oral, 100 mg/kg, Concentration, individual animals 1-3, blood, 100 mg/kg BID, 24 h
endpoint.label: concentration at 24 h (ng/mL)
All answers are understood in ng/mL, so give the number only.

Prompt: Using the record for "CS(=O)(=O)CCNCc1ccc(-c2ccc3ncnc(Nc4ccc(OCc5cccc(F)c5)c(Cl)c4)c3c2)o1" , report its concentration at 24 h.
Response: 95.2

---

Test: in vivo
Conditions: female, CB-17 SCID, mouse, BT474 tumor, po, 100 mg/kg, Tmax, 100 mg/kg BID, multiple doses
endpoint.label: Tmax (h)
Please state the figure in h; there is no need to write the unit.

Prompt: Which value of Tmax has been reported for CS(=O)(=O)CCNCc1ccc(-c2ccc3ncnc(Nc4ccc(OCc5cccc(F)c5)c(Cl)c4)c3c2)o1 [lapatinib] in the records?
Response: 4
